// data source = the supplement of paper PMC6555819

- Test system: PPARg:RXRa 90nM:30nM, anti-RXR (NR concentration 90 nM, RXRa partner concentration 30 nM)
- test.protocol: PBM binding z-score (relative to random genomic background probes); higher = stronger binding; sequences stand for … in GC…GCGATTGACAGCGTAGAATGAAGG
Each record here notes measured PBM binding z-score.
Give only the figure.

GCTTACGGGTCAAAGGTTATAGCTTGAATAGAAT	10.9

INPUT: Dear colleague, I am looking for the recorded PBM binding z-score of the following sequence: `CGAACTAGGTCATCCAGGACAGTGTATACATTGA`
OUTPUT: 5.65

INPUT: What about `CCTTGTTGGTCAGGAGGTCACACACCGGATATGA` ?
OUTPUT: 2.83
